System: isolated rat liver mitochondria
Assay: Uncoupling activity: increase in basal (state 4) oxygen consumption by oxygraphy
Type: biochemical
Details: test conc. 25 μM; increase in basal (state 4) oxygen consumption as % of average ADP-stimulated (state 3) rate in vehicle-treated mitochondria
Hi all, reminder that labels come from Uncoupling (%), split as zone 1 (below 3%), zone 2 (3% to below 20%), zone 3 (20% or more)

Consider the following illustrative entries.
O=[N+]([O-])c1ccc(O)c([N+](=O)[O-])c1 | zone 3
Oc1cc(O)cc(/C=C/c2ccc(O)c(O)c2)c1 [piceatannol (trans)] | zone 1
Oc1cc(O)cc(/C=C/c2ccccc2)c1 [trans-pinosylvin, pinosylvin] | zone 1
COc1cc(/C=C/C(=O)c2ccc(O)cc2O)ccc1O | zone 2
COc1ccc(C2CC(=O)c3c(O)cc(O)cc3O2)cc1O (racemic) [(±) hesperetin, hesperetin] | zone 1

Task: Class label required: O=C(/C=C/c1ccccc1)c1ccc(O)cc1 [4′-hydroxychalcone]
Output: zone 2

Task: Also need O=c1cc(-c2ccc(O)cc2)oc2cc(O)cc(O)c12 , thanks.
Output: zone 2

Task: Field entry: O=c1c(O)c(-c2ccccc2O)oc2cc(O)cc(O)c12
Output: zone 2

Task: Moving on to Oc1ccc(C=Cc2cc(O)cc(O)c2)cc1 [resveratrol (trans)]
Output: zone 1

----------
Quick reference for Residual capacity (%) among some compounds
System: isolated rat liver mitochondria
Assay: Residual functional capacity / inhibitory effect on ADP-stimulated (state 3) oxygen consumption
Assay type: biochemical
Details: test conc. 100 μM; functional capacity (state 3 minus state 4 rate) as % of vehicle-treated mitochondria
Give your result in % as a bare value.

Oc1cc(O)cc(/C=C/c2ccccc2)c1 [trans-pinosylvin, pinosylvin] | 63

Task: Value lookup for Residual capacity (%); key = O=C(/C=C/c1ccc(O)c(O)c1)c1ccc(O)cc1O
Output: 0

Task: // next record Oc1ccc(O)cc1 [hydroquinone]
Output: 90

Task: Also O=C(/C=C/c1ccc(O)c(O)c1)OCCc1ccccc1 , if possible.
Output: 0

----------
Test system: isolated rat liver mitochondria
Assay: Residual functional capacity / inhibitory effect on ADP-stimulated (state 3) oxygen consumption
Assay type: biochemical
Settings: test conc. 100 μM
Quick reference for Inhibitory effect (%) among some compounds
Note: unit % is implicit; provide only the numeric part.

O=C1C[C@@H](c2ccc(O)cc2)Oc2cc(O)cc(O)c21 (racemic) [(±) naringenin, naringenin] | 31
O=c1cc(-c2ccc(O)cc2)oc2cc(O)cc(O)c12 [apigenin] | 44
O=C(/C=C/c1ccc(O)cc1)c1ccc(O)cc1O [isoliquiritigenin] | 0
COc1cc(/C=C/C(=O)c2ccc(O)cc2O)ccc1O [homobutein] | 22

Please look at the following compound next.
Task: I'd like to know its Inhibitory effect (%). The compound in question is O=c1c(-c2ccc(O)cc2)coc2cc(O)ccc12 [daidzein]
Output: 26

----------
Tested on: isolated rat liver mitochondria
Test: Uncoupling activity: increase in basal (state 4) oxygen consumption by oxygraphy
Type: biochemical
Conditions: dose-escalation; read-out: U50 (concentration at which 50% uncoupling is induced)
VALUE_KIND: EC50

Task: Dear colleague, I am looking for the recorded EC50 of the following compound: O=[N+]([O-])c1ccc(O)c([N+](=O)[O-])c1
Output: ~10 µM

----------
Tested on: isolated rat liver mitochondria
Test: Residual functional capacity / inhibitory effect on ADP-stimulated (state 3) oxygen consumption
Type: biochemical
Conditions: test conc. 100 μM
Parameter: Inhibitory effect (%). Scope: all listed entries.
Form entry: enter the amount, then its unit.

Solved cases (5 shown):
O=c1c(O)c(-c2ccc(O)cc2O)oc2cc(O)cc(O)c12 | 60%
CC(=O)c1ccc(O)cc1 | 13%
Oc1ccc(O)cc1 [hydroquinone] | 10%
O=c1c(O)c(-c2ccc(O)cc2)oc2cc(O)cc(O)c12 | 47%
Cc1ccc(C(C)C)cc1O | 10%

Continue with the next molecule.
Task: Look up Inhibitory effect (%): O=c1c(O)c(-c2ccccc2)oc2cc(O)cc(O)c12
Output: 5%
